- protocol.description: qHTS RealTime-Glo MT Cell Viability Assay in HEK293 cells - 8 hour (AID 1224887); note: top concentration of the series differs between compounds; nearly all actives have a fitted effect of over 50% in size
- protocol.conditions: RealTime-Glo luminescence; series mostly up to 76.8 µM
Results filed as inconclusive are left out. Active and inactive are the calls of the source. Calls come from the whole dose curve; as a rule, active = well fitted cell-killing curve with a large enough effect in the repeat runs; inconclusive = weak or mixed curves, or effect the other way; inactive = flat fitted curve, though single readings scatter.
Output constraint: value belongs to 1 (yes) = active, 0 (no) = inactive

>>> cat("CC(C)=CCCC(C)CCOC=O (configuration not stated)")
"0 (no)"

Now for a further molecule.
Q. Look up the recorded call for CC1(C)S[C@@H]2[C@H](NC(=O)C(C(=O)O)c3ccccc3)C(=O)N2[C@H]1C(=O)O (some centres not stated) in this test.
A. 0 (no)

* * *

- protocol.description: qHTS assay to identify small molecule antagonists of the estrogen receptor alpha (ER-alpha) signaling pathway using the BG1 cell line - cell viability counter screen (AID 743081);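 note: compound given together with 17beta-estradiol as the ER stimulus; nearly all actives have a fitted effect of over 45% in size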
- protocol.conditions: BG1Luc4E2 viability, CellTiter-Fluor, 22 h; series mostly up to 70.3 µM
Records with an inconclusive call do not appear. Calls of active or inactive are those of the source. Calls follow the shape of the dose curve; as a rule, active = well fitted cell-killing curve with a large enough effect in the repeat runs; inconclusive = weak or mixed curves, or effect the other way; inactive = flat fitted curve, though single readings scatter.
measured.parameter: outcome

Example entries begin here.
>>> val("CCN(O)CC")
"inactive"
>>> val("CCCCCOc1ccc(C2SC(=O)NC2=O)cc1OCC (stereo unspecified)")
"inactive"
>>> val("NC/C=C/C(=O)O")
"inactive"
>>> val("CCCCOc1cc(C(=O)NCCN(CC)CC)c2ccccc2n1")
"inactive"

Q. Query: outcome; subject: CC1CN(c2ccccc2)NC1=O (stereo unspecified)
A. inactive

Q. Which outcome value is on record for CCN(CC)CC1CCCCN1CC(=O)N1c2ccccc2C(=O)Nc2cccnc21 (stereo unspecified) ?
A. inactive

Q. What value of outcome has been reported for the following compound? CC(C)C(=O)OCC(C)(C)C(O)C(C)C (stereo unspecified)
A. inactive

Q. Item "Cc1ccc(C(C)C)cc1O" has what recorded outcome?
A. inactive

Q. Using the record for "CCCCNCCCC" , report its outcome.
A. inactive

* * *

- protocol.description: qHTS assay to identify small molecule agonists of the retinoic acid receptor (RAR) signaling pathway (AID 1159553); note: potency is the fitted concentration of half-maximal effect
- protocol.conditions: C3RL4 RARE luciferase reporter, agonist, 6 h; series mostly up to 73.3 µM
Results filed as inconclusive are left out. The source made the active and inactive calls. Calls follow the shape of the dose curve; as a rule, active = well fitted activation curve with a large enough effect in the repeat runs; inconclusive = weak or mixed curves, or effect the other way; inactive = no such curve, though single readings can be large or run the other way.
measured.parameter: Potency

>>> val("CCN(CCCc1ccccc1)CCCc1ccccc1")
"inactive"
>>> val("CCOC(=O)c1cc(=O)c2c(OCC(COc3cccc4oc(C(=O)OCC)cc(=O)c34)OC(=O)[C@@H](N)CCCCN)cccc2o1")
"inactive"
>>> val("CCCCC(=O)O[C@]1(C(=O)CO)[C@H](C)C[C@H]2[C@@H]3CCC4=CC(=O)C=C[C@]4(C)[C@@]3(F)[C@@H](O)C[C@@]21C")
"inactive"
>>> val("Nc1ccc2ccccc2c1S(=O)(=O)O")
"24.8 µM (active)"

Shift focus to the following entry.
Q. Fill blank: measured Potency of the compound "CCOc1ccc2nc(N)sc2c1" is ____.
A. 3.83 µM (active)

* * *

- protocol.description: qHTS RealTime-Glo MT Cell Viability Assay in HEK293 cells - 8 hour (AID 1224887); note: top concentration of the series differs between compounds; nearly all actives have a fitted effect of over 50% in size
- protocol.conditions: RealTime-Glo luminescence; series mostly up to 76.8 µM
Inconclusive results are not listed. Calls of active or inactive are those of the source. The call rests on the fitted dose curve; in most records, active means well fitted cell-killing curve with a large enough effect in the repeat runs; inconclusive means weak or mixed curves, or effect the other way; inactive means flat fitted curve, though single readings scatter.
Select the matching outcome among class 1 (active), class 0 (inactive)

>>> cat("FC(F)(F)C(Cl)(Cl)Cl")
"class 0"

Q. For "CCCCCCCCCCCCCCCCOP(=O)([O-])OCC[N+](C)(C)C" , which call appears in the assay record?
A. class 0

Q. Hi, sorry to bother you, what did the test record for COc1ccccc1OCC(O)COC(N)=O (stereo unspecified) ?
A. class 0

Q. What outcome does the record of this test show for "O=CCCc1ccccc1" ?
A. class 0

Q. Which result was noted for this compound in the test: NC1=NCC2c3ccccc3Cc3ccccc3N12 (stereo unspecified)
A. class 0

Q. Per the records of this test, what outcome belongs to CCCOc1ccc2c(c1)CC[C@@H]1[C@@H]2CC[C@]2(C)C(OC)CC[C@@H]12 (stereo partly specified) ?
A. class 0

Entry source: PubChem BioAssay (Tox21)
